# EXPERIMENTAL TARGET: MdxE (Thermoanaerobacter mathranii subsp. mathranii, UniProt A0ABM5LRQ5)
# Sequence (A0ABM5LRQ5 entry or part of it): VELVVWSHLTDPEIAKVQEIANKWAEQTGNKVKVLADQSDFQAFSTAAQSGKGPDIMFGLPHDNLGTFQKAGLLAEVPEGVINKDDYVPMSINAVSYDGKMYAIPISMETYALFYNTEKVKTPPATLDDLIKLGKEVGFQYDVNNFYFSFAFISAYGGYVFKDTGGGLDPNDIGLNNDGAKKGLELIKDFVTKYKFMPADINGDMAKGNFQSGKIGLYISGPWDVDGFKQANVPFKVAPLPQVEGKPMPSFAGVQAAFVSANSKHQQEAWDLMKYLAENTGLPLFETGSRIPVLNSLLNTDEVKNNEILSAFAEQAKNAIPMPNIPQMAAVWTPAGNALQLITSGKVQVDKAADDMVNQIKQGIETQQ
# MEASUREMENT NOTES: ANS fluorescence determination of protein surface hydrophobicity (Ho) of MdxE-ligand complexes
# Parameters: species or system Thermoanaerobacter mathranii subsp. mathranii A3
# COND: MdxE 2–14 µM, 350 µM ligand, 20 µM ANS, λmax = 485 nm; letters = Tukey groups (p < 0.05)
Marks after values point to notes of the source that are not given here.
VALUE KIND: Ho (protein surface hydrophobicity, slope of RFU versus MdxE concentration)

Problem: Assign Ho (protein surface hydrophobicity, slope of RFU versus MdxE concentration) to the following record: "OC[C@H]1O[C@@H]2O[C@H]3[C@H](O)[C@@H](O)[C@@H](O[C@H]4[C@H](O)[C@@H](O)[C@@H](O[C@H]5[C@H](O)[C@@H](O)[C@@H](O[C@H]6[C@H](O)[C@@H](O)[C@@H](O[C@H]7[C@H](O)[C@@H](O)[C@@H](O[C@H]1[C@H](O)[C@H]2O)O[C@@H]7CO)O[C@@H]6CO)O[C@@H]5CO)O[C@@H]4CO)O[C@@H]3CO"
Result: 37.1 ^a

* * *

// ΔH lookup, one value per entry
# EXPERIMENTAL TARGET: MdxE (Thermoanaerobacter mathranii subsp. mathranii)
# MEASUREMENT NOTES: ITC measurements of MdxE-ligand binding
# Parameters: species or system Thermoanaerobacter mathranii subsp. mathranii A3
# COND: ITC, 55 °C; ND = not detected
// note: answer is a bare numeric in kcal/mol

Would you please look over these solved cases?
MOLECULE | VALUE KIND | OBSERVED VALUE
OC[C@H]1O[C@@H]2O[C@H]3[C@H](O)[C@@H](O)[C@@H](O[C@H]4[C@H](O)[C@@H](O)[C@@H](O[C@H]5[C@H](O)[C@@H](O)[C@@H](O[C@H]6[C@H](O)[C@@H](O)[C@@H](O[C@H]7[C@H](O)[C@@H](O)[C@@H](O[C@H]8[C@H](O)[C@@H](O)[C@@H](O[C@H]9[C@H](O)[C@@H](O)[C@@H](O[C@H]1[C@H](O)[C@H]2O)O[C@@H]9CO)O[C@@H]8CO)O[C@@H]7CO)O[C@@H]6CO)O[C@@H]5CO)O[C@@H]4CO)O[C@@H]3CO [γ-CD] | ΔH | -6.50
OC[C@H]1O[C@@H]2O[C@H]3[C@H](O)[C@@H](O)[C@@H](O[C@H]4[C@H](O)[C@@H](O)[C@@H](O[C@H]5[C@H](O)[C@@H](O)[C@@H](O[C@H]6[C@H](O)[C@@H](O)[C@@H](O[C@H]7[C@H](O)[C@@H](O)[C@@H](O[C@H]8[C@H](O)[C@@H](O)[C@@H](O[C@H]1[C@H](O)[C@H]2O)O[C@@H]8CO)O[C@@H]7CO)O[C@@H]6CO)O[C@@H]5CO)O[C@@H]4CO)O[C@@H]3CO [β-CD] | ΔH | -5.28
OC[C@H]1O[C@H](O[C@H]2[C@H](O)[C@@H](O)[C@@H](O[C@H]3[C@H](O)[C@@H](O)C(O)O[C@@H]3CO)O[C@@H]2CO)[C@H](O)[C@@H](O)[C@@H]1O (mixture of isomers) [G3, maltotriose] | ΔH | -8.64

Problem: Assign ΔH to the following record: OC[C@H]1O[C@@H]2O[C@H]3[C@H](O)[C@@H](O)[C@@H](O[C@H]4[C@H](O)[C@@H](O)[C@@H](O[C@H]5[C@H](O)[C@@H](O)[C@@H](O[C@H]6[C@H](O)[C@@H](O)[C@@H](O[C@H]7[C@H](O)[C@@H](O)[C@@H](O[C@H]1[C@H](O)[C@H]2O)O[C@@H]7CO)O[C@@H]6CO)O[C@@H]5CO)O[C@@H]4CO)O[C@@H]3CO [α-CD]
Result: -6.83
